Taken from patent US5891882A.

Listed below: pKi values for each entry.
# system: α-1a adrenoreceptor (bovine) (Bos taurus, UniProt P18130)
# Construct: expressed in transfected cells; cDNA from TULCO; membranes
# Sequence (P18130 whole entry): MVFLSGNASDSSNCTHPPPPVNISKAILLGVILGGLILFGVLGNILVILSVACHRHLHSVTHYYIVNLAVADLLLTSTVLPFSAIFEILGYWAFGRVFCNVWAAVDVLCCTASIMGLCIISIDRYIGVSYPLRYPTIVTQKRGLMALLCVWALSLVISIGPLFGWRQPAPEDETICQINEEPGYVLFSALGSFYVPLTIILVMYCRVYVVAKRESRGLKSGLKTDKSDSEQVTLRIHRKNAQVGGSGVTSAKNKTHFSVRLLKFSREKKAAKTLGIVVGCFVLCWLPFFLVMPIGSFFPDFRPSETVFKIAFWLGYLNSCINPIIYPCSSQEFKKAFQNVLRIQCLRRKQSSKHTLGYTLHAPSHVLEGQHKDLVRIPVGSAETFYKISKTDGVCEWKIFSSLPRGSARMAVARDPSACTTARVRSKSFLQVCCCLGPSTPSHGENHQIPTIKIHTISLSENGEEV
# experimentNotes: In vitro [3H]-prazosin radioligand binding, cloned α-1a adrenoreceptor expressed in LTK cells
Where a name gives a salt, the structure may show the parent alone.
pKi is defined as minus the log10 of a concentration measured in mol/L.

Before answering, review these 4 worked examples.
molecule | pKi
COc1cccc2c1[C@@H]1CCN(CCCCn3c(=O)[nH]c4c(sc5ccccc54)c3=O)C[C@H]1CO2 (relative stereo) [Example 87, hydrochloride] | 9.64
COc1cc2[nH]c(=O)n(CCCCN3CC[C@H]4c5c(OC)cccc5OC[C@@H]4C3)c(=O)c2cc1OC (relative stereo) [Example 86, hydrochloride] | 9.69
COc1cc2[nH]c(=O)n(CCCCN3C[C@@H]4COc5cccc(OC)c5[C@H]4C3)c(=O)c2cc1OC (racemic) [Example 82, dihydrochloride] | 9.44
COc1cccc2c1[C@@H]1CCN(CCCn3c(=O)[nH]c4c(sc5ccccc54)c3=O)C[C@H]1CO2 (relative stereo) [Example 89, hydrochloride] | 10.42

Query: Provide measured pKi value, entry: COc1cccc2c1[C@@H]1CCN(CCn3c(=O)[nH]c4c(sc5ccccc54)c3=O)C[C@H]1CO2 (relative stereo) [Example 90, hydrochloride]
Response: 9.87

Query: Provide measured pKi value, entry: COc1cccc2c1[C@@H]1CCN(CCCn3c(=O)[nH]c4c(sc5ncccc54)c3=O)C[C@H]1CO2 (relative stereo) [Example 84, hydrochloride]
Response: 9.21

Query: Provide measured pKi value, entry: COc1cccc2c1[C@@H]1CCN(CCCCn3c(=O)[nH]c4c(sc5cccnc54)c3=O)C[C@H]1CO2 (relative stereo) [Example 88, hydrochloride]
Response: 9.96
